The measured values listed here are drawn from patent US20250388565A1.

tgt: ERα protein (HiBiT-tagged) in ESR1_HiBiT KI MCF7 cells (Homo sapiens, UniProt P03372)
Sequence (P03372 1-595): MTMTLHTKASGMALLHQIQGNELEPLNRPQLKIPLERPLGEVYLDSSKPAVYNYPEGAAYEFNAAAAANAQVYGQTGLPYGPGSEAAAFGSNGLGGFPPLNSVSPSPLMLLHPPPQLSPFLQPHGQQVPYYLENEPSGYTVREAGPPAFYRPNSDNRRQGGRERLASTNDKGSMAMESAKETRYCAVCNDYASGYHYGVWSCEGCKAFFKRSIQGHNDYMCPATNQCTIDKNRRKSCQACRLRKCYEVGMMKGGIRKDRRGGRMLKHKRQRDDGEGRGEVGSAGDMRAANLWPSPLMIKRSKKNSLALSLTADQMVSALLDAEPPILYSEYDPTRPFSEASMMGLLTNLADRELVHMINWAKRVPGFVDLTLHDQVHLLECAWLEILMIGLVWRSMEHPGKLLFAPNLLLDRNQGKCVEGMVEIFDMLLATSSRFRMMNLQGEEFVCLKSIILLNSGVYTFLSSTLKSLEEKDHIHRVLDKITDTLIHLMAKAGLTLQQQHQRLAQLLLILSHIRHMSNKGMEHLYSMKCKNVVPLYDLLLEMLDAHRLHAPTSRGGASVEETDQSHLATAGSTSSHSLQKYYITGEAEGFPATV
protocolDetails: Nano Glo HiBiT Lytic Degradation Assay
Assay type: cell-based
conditionsUsed: 6 hours with compound, 14-point dose response 1:3, bell-shape curve fit, half-maximal effect of first Hill model, read-out: MCF7 ESR1 HiBiT - (DC50)
measureName: DC50

Exercise: Give the measured DC50 of O=C1CC[C@H](N2Cc3cc(N4CCN(C[C@H]5CCN(c6ccc([C@@H]7c8ccc(O)cc8CC[C@@H]7c7ccccc7)cc6)C5)CC4)ccc3C2=O)C(=O)N1 (single isomer, unassigned) .
Solution: 18 nM

Exercise: Give the measured DC50 of C[C@@H]1C[C@H](CN2CCN(c3ccc4c(c3)CN(C3CCC(=O)NC3=O)C4=O)CC2)CCN1c1ccc([C@@H]2c3ccc(O)cc3CC[C@@H]2c2ccccc2)cc1 (single isomer, unassigned) .
Solution: 1 nM

Exercise: Give the measured DC50 of CC1(C)CC([C@@H]2CCc3cc(O)ccc3[C@@H]2c2ccc(N3CCC(CN4CCN(c5ccc6c(c5)CN([C@H]5CCC(=O)NC5=O)C6=O)CC4)CC3)cc2)CC(C)(C)C1 .
Solution: ≥ 10000 nM

Exercise: Give the measured DC50 of O=C1CCC(n2cc3cc(N4CCN(CC5CCN(c6ccc([C@@H]7c8ccc(O)cc8CC[C@@H]7c7ccccc7)cc6)CC5)CC4)ccc3n2)C(=O)N1 (stereo partly shown) .
Solution: 1 nM

Exercise: Give the measured DC50 of C[C@@]1(N2Cc3cc(N4CCN(CC5CCN(c6ccc([C@@H]7c8ccc(O)cc8CC[C@@H]7c7ccccc7)cc6)CC5)CC4)ccc3C2=O)CCC(=O)NC1=O (single isomer, unassigned) .
Solution: ≥ 10000 nM

Exercise: Give the measured DC50 of Cn1cc([C@H]2CCc3cc(O)ccc3[C@H]2c2ccc(N3CCC(CN4CCN(c5ccc6c(c5)CN([C@H]5CCC(=O)NC5=O)C6=O)CC4)CC3)cc2)cn1 .
Solution: 2 nM

Exercise: Give the measured DC50 of O=C1CC[C@H](N2Cc3cc(N4CCN(CC5CCN(c6ccc([C@@H]7c8ccc(O)cc8CC[C@@H]7C7=CCCCC7)cc6)CC5)CC4)ccc3C2=O)C(=O)N1 (single isomer, unassigned) .
Solution: 0.19 nM

Exercise: Give the measured DC50 of O=C1CCC(N2Cc3cc(N4CCN(CC5CCN(c6ccc([C@@H]7c8ccc(O)cc8C(F)(F)C[C@@H]7c7ccc(F)cc7)cc6)CC5)CC4)ccc3C2=O)C(=O)N1 (stereo partly shown) .
Solution: 0.39 nM

Exercise: Give the measured DC50 of O=C1CC[C@H](N2Cc3cc(N4CCN(CC5CCN(c6ccc([C@H]7c8ccc(O)cc8CC[C@H]7c7ccccc7)cc6F)CC5)CC4)ccc3C2=O)C(=O)N1 .
Solution: ≥ 10000 nM

Exercise: Give the measured DC50 of O=C1CC[C@H](N2Cc3cc(N4CCN(CC5CCN(c6ccc([C@H]7c8ccc(O)cc8CC[C@H]7C7CCCCC7)nc6)CC5)CC4)ccc3C2=O)C(=O)N1 .
Solution: ≥ 10000 nM
